- Test system: PC-12
- ASSAY NOTES: Neuroprotective activity against oxygen glucose deprivation-induced cell death in rat PC12 cells assessed as change in cell viability at 1 uM after 24 hrs by MTT assay relative to control
- Assay type: functional
Here, each record is paired with measured Activity data.
RECORDED ENDPOINT: Activity (%)

1. [2H]C1([2H])CC(C)CC([2H])([2H])N1Cc1c(-c2ccc(F)cc2)no[n+]1[O-] ... 11
2. CC1CCN(Cc2no[n+]([O-])c2-c2ccc(OC(F)F)cc2)CC1 ... 67
3. Cc1ccc(-c2c(CN3CCC(C)CC3)no[n+]2[O-])cc1 ... 22
4. CC1CCN(Cc2no[n+]([O-])c2-c2ccc(F)cc2)CC1 ... -3
5. CC1CCN(Cc2c(-c3ccc(Br)cc3)no[n+]2[O-])CC1 ... -7
